Just for reference, patent US20230192890A1 is where these values come from.

Readings of absorbance 490 nm/630 nm for the listed binders
testSystem: T1, Ala mutant SEQ ID NO: 41 (human)
T1 sequence (peptide): EENMDDQWMQDEMEAGY
protocol: ELISA, peptide on plate (10 ug/mL)
Entry rule: numbers only, all in OD.

E9 (antibody, IgG1, V domains shown) VH: AVTLDESGGGLQTPGGTLSLVCKGSGFTFSSYGMGWMRQAPGKGLEYVAAIRNDGSWTGYGSAVKGRATISRDNGQSTVRLQLNNLRAEDTATYYCAKTSGSSGGSVDAWGHGTEVIVS VL: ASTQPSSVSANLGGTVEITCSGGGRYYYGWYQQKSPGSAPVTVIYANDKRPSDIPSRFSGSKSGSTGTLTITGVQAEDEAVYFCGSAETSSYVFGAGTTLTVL ... 1.8

-- ask Recorded absorbance 490 nm/630 nm for A11 (antibody, IgG1, V domains shown) VH: AVTLDESGGGLQTPGGALSLVCKASGFDFSSYGMGWMRQAPGKGLEYVAAIRNDGSWTGYGAAVKGHATISRDNGQSTVRLQLNNLRAEDTGTYYCAKTTGSRGGSIDAWGHGTEVIVS VL: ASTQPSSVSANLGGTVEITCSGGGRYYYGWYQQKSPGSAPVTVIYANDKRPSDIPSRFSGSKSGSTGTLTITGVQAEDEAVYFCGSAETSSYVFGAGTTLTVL , please?
-- reply 1.85
